- measurementTarget: Serine/threonine-protein kinase Nek3 (Homo sapiens) (UniProt P51956)
- Sequence (whole entry): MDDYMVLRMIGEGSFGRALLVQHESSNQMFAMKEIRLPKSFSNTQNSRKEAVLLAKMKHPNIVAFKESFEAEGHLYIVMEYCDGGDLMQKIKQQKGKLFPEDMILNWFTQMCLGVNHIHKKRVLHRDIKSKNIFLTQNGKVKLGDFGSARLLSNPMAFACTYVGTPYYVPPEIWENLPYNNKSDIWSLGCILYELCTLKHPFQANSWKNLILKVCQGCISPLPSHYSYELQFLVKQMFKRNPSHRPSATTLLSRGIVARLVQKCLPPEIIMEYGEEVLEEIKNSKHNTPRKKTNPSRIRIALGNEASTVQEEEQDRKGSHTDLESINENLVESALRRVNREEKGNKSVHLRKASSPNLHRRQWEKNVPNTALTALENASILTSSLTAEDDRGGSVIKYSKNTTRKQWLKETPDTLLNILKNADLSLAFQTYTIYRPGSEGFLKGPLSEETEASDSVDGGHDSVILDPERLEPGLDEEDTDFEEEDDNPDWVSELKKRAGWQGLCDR
- testConditions: at 10 µM
- Description: Millipore: Percentage of residual kinase activity of NEK3 at 10uM relative to control. Control inhibitor: Phosphoric acid* at 0.3uM. Buffer: 8 mM MOPS pH 7.0, 0.2 mM EDTA
Tick 1.0 if residual activity is 80% or greater. Tick 0.0 if residual activity is less than 80%.

O=C1NC(=O)/C(=C/c2ccc3c(c2)OC(F)(F)O3)S1 1.0

-- ask Given the entry Cc1ccc(NC2=CC(=O)c3sc(C)nc3C2=O)cc1 , answer whether its residual activity meets or surpasses 80%.
-- reply 1.0

-- ask And the next one, Cc1ccc(S(=O)(=O)/C=C/C#N)cc1 ?
-- reply 1.0

-- ask And the next one, Nc1ccc2ncnc(NCCc3ccc(Oc4ccccc4)cc3)c2c1 ?
-- reply 1.0

-- ask And the next one, CCN(CC)C(=O)c1ccc(Nc2nc(OCC3CCCCC3)c3nc[nH]c3n2)cc1 ?
-- reply 0.0

-- ask And the next one, O=C1c2ccccc2-[n+]2ccc3c([nH]c4ccccc43)c21 ?
-- reply 1.0

* * *

- measurementTarget: SRSF protein kinase 3 (Homo sapiens) (UniProt Q9UPE1)
- Sequence (Q9UPE1 whole entry): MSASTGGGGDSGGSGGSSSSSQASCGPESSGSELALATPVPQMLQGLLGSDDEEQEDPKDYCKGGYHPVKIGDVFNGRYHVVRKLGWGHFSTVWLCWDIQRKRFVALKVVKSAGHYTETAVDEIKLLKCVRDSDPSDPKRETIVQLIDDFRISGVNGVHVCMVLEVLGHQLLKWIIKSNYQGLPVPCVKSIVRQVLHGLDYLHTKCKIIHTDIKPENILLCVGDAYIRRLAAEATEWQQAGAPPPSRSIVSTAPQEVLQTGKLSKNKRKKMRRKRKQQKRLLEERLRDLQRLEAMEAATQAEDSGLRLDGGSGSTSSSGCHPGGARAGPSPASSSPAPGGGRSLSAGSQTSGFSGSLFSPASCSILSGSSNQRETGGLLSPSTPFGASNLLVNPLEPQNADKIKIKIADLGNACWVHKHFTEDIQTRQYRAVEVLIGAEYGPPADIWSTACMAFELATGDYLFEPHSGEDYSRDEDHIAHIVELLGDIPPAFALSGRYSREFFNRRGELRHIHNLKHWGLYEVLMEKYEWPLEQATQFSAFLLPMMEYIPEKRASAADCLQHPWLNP
- testConditions: at 10 µM
- Description: Millipore: Percentage of residual kinase activity of SRPK3 at 10uM relative to control. Control inhibitor: Phosphoric acid* at 0.3uM. Buffer: 8 mM MOPS pH 7.0, 0.2 mM EDTA
Please go through the items and note down their residual activity.
Answers are plain numbers, in %.

Batch lookup, residual activity per entry.
1. Nc1nc(Nc2ccc(S(N)(=O)=O)cc2)nn1C(=S)Nc1c(F)cccc1F
2. O=[N+]([O-])c1ccc(-c2nc(-c3ccc(F)cc3)c(-c3ccncc3)[nH]2)cc1
3. COc1cc2ncnc(Nc3ccc(O)c(Br)c3)c2cc1OC
4. NC(=O)c1ccc2[nH]c(-c3ccc(Oc4ccc(Cl)cc4)cc3)nc2c1
5. CO[C@H]1C[C@@H]2CC[C@@H](C)[C@@](O)(O2)C(=O)C(=O)N2CCCC[C@H]2C(=O)O[C@H]([C@H](C)C[C@@H]2CC[C@@H](O)[C@H](OC)C2)CC(=O)[C@H](C)/C=C(\C)[C@@H](O)[C@@H](OC)C(=O)[C@H](C)C[C@H](C)/C=C/C=C/C=C/1C
6. O=c1cc(-c2cccc3c2Sc2ccccc2S3)oc(N2CCOCC2)c1
7. COc1cc2ncc(-c3ccccc3)nc2cc1OC

-- reply
[12, 104, 90, 72, 88, 94, 92]

Batch lookup, residual activity per entry.
1. CCN(CC)CCCCN1c2ccccc2Oc2ccc(Cl)cc21
2. COc1ccc(OC)c2c(=S)c3ccccc3[nH]c12

-- reply
97
79

* * *

- measurementTarget: Tyrosine-protein kinase Tec (Homo sapiens)
- Sequence (whole entry): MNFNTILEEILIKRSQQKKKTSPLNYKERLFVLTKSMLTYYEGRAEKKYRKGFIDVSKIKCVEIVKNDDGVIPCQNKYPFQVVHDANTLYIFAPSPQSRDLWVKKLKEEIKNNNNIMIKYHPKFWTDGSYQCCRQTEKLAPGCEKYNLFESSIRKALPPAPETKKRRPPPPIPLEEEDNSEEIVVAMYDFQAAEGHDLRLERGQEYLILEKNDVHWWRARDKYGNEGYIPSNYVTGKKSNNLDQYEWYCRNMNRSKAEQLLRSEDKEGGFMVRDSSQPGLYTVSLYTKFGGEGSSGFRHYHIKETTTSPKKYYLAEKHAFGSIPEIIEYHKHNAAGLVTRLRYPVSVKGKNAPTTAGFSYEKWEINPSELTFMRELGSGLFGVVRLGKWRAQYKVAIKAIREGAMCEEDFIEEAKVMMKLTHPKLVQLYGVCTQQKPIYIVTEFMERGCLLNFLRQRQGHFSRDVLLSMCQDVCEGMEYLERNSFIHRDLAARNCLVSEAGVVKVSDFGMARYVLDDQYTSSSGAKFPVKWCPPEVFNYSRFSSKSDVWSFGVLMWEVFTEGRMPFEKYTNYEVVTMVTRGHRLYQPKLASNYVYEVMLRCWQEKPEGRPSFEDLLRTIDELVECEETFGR
- testConditions: at 10 µM
Please go through the items and note down their residual activity.
One number for each entry, in %.

Cn1nc2c3c(cccc31)C(=O)c1ccccc1-2 69

Batch lookup, residual activity per entry.
1. CCN(CC)CCCCN1c2ccccc2Oc2ccc(Cl)cc21
2. CO[C@@H]1[C@H](N(C)C(=O)c2ccccc2)C[C@H]2O[C@]1(C)n1c3ccccc3c3c4c(c5c6ccccc6n2c5c31)C(=O)NC4
3. c1ccc(-c2n[nH]cc2-c2ccnc3ccccc23)nc1

-- reply
1: 78; 2: 40; 3: 91

Batch lookup, residual activity per entry.
1. CNc1cc2c(Nc3cccc(Br)c3)ncnc2cn1
2. CC[n+]1c(/C=C/N(C)c2ccccc2)n(-c2ccccc2)c2ccc(-c3nc4ccccc4s3)cc21
3. Nc1nc(Nc2ccc(S(N)(=O)=O)cc2)nn1C(=S)Nc1c(F)cccc1F
4. CC(=O)c1ccc(N2CCOCC2)cc1O
5. O=Nc1c(-c2c(O)[nH]c3ccccc23)[nH]c2ccccc12
6. Nc1n[nH]c2nnc(-c3c(-c4ccccc4)nn4ccccc34)cc12
7. Oc1n[nH]c2nnc(-c3c(-c4ccccc4)nn4ccccc34)cc12

-- reply
1. 52
2. 27
3. 23
4. 91
5. 22
6. 50
7. 66

* * *

- measurementTarget: Serine/threonine-protein kinase Nek11 (Homo sapiens) (UniProt Q8NG66)
- Sequence (Q8NG66 whole entry): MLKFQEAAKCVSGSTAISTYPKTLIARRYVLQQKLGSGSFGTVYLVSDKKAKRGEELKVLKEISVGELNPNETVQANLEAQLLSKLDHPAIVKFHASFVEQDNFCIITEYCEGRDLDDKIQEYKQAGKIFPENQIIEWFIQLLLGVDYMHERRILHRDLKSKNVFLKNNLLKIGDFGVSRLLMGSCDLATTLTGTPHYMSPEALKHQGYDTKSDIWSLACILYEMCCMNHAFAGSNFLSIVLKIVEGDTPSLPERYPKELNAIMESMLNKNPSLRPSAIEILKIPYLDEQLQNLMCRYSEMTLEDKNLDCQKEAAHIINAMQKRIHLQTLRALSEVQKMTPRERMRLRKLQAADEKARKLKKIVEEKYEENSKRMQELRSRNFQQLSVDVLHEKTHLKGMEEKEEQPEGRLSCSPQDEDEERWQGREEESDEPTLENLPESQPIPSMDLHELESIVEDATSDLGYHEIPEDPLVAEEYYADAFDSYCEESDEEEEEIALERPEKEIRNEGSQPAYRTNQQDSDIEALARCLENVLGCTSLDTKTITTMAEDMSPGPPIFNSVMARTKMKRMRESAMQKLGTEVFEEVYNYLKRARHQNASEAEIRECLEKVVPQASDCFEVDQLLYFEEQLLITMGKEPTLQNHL
- testConditions: at 10 µM
observedProperty: residual activity (%)
One number for each entry, in %.

Below, 5 molecules whose answers are already recorded.
CN(C)c1ccc(/C=C2\C(=O)Nc3ccccc32)cc1 90
N#Cc1cnc2cnc(NCc3cccnc3)cc2c1Nc1ccc(F)c(Cl)c1 79
COc1cc2ncnc(Nc3ccc(Oc4ccccc4)cc3)c2cc1OC 105
O=C1NC(=O)/C(=C/c2ccc3c(c2)OC(F)(F)O3)S1 82
COc1ccc(C(=O)Nc2sc3c(c2C(N)=O)CCCC3)cc1OC 96

-- ask Given the molecule c1ccc(-c2n[nH]cc2-c2ccnc3ccccc23)nc1 , what is its reported residual activity?
-- reply 96

* * *

- measurementTarget: Protein kinase C alpha type (Homo sapiens)
- testConditions: at 1 µM
observedProperty: residual activity (%)
Give bare numbers, in %.

c1ccc2c(-c3ccncc3)c[nH]c2c1 98
COc1cc2ncnc(N3CCN(C(=O)Nc4ccc(Oc5ccccc5)cc4)CC3)c2cc1OC 99
COc1ccc(OC)c2c(=S)c3ccccc3[nH]c12 102

Now look at this entry.
-- ask Reported residual activity for Protein kinase C alpha type (Homo sapiens), given Oc1ccc(-c2nc(-c3ccc(F)cc3)c(-c3ccncc3)[nH]2)cc1 ?
-- reply 112

* * *

- measurementTarget: ALK tyrosine kinase receptor (Homo sapiens) (UniProt Q9UM73)
- Sequence (Q9UM73 19-1620 limits assumed): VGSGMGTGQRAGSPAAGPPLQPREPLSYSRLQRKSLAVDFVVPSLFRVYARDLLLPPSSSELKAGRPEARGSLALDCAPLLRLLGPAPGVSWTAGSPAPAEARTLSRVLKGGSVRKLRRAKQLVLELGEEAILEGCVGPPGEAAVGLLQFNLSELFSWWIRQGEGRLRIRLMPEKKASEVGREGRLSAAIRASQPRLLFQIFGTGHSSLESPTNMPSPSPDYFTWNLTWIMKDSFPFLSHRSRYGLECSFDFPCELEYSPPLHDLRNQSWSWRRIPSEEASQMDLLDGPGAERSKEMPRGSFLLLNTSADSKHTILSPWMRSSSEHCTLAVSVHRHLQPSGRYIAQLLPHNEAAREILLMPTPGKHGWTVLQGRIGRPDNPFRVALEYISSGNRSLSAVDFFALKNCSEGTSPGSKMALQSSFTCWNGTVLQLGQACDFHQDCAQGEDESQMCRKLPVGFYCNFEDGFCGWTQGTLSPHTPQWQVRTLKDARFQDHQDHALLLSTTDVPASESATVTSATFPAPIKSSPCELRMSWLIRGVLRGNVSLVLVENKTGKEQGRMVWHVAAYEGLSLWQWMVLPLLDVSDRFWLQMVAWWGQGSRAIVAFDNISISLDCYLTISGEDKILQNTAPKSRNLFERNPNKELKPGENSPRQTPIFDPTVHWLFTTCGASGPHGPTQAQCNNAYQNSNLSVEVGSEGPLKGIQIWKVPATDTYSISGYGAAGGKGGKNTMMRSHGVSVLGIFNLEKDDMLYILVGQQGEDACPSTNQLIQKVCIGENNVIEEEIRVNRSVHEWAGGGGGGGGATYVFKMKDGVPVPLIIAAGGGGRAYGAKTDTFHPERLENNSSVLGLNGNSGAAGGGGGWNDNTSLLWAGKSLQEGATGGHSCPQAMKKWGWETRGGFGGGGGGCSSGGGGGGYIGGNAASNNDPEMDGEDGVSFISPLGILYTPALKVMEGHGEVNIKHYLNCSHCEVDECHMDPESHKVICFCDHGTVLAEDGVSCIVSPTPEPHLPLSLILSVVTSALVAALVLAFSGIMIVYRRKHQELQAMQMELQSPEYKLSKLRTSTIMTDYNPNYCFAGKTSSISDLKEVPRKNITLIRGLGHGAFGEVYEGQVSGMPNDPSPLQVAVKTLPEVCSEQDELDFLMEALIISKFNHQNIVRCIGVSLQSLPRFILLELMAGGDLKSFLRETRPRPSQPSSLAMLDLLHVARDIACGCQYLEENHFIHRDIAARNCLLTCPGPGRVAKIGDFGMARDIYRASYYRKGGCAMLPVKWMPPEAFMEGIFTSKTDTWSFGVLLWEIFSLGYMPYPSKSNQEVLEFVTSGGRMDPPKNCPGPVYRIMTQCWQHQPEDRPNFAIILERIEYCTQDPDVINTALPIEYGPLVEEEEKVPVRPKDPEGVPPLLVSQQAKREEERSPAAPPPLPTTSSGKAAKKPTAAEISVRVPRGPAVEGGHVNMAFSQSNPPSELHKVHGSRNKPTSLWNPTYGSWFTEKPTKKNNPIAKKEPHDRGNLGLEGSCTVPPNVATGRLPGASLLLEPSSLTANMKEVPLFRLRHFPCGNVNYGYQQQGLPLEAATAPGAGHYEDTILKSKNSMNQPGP
- testConditions: at 1 µM
Please assign criterion not met whenever residual activity is at or above 80%, and criterion met whenever it is below.

Here's what some known entries look like.
O=C1NC(=O)c2c1c1c3ccccc3[nH]c1c1[nH]c3cc(Br)ccc3c21 criterion not met
c1ccc(-c2n[nH]c3c2oc2ccccc23)cc1 criterion not met
N#CCCc1ccc2c(c1)-c1[nH]c3ccc([N+](=O)[O-])cc3c1CC(=O)N2 criterion met
O=c1cc(-c2cccc3c2Sc2ccccc2S3)oc(N2CCOCC2)c1 criterion not met
O=C1c2ccccc2-[n+]2ccc3c([nH]c4ccccc43)c21 criterion not met

Field: next compound
-- ask Take the compound c1ccc2c(-c3ccncc3)c[nH]c2c1 and say whether its residual activity is less than 80%.
-- reply criterion met

* * *

- measurementTarget: Focal adhesion kinase 1 (Homo sapiens) (UniProt Q05397)
- Sequence (Q05397 2-1052 limits assumed): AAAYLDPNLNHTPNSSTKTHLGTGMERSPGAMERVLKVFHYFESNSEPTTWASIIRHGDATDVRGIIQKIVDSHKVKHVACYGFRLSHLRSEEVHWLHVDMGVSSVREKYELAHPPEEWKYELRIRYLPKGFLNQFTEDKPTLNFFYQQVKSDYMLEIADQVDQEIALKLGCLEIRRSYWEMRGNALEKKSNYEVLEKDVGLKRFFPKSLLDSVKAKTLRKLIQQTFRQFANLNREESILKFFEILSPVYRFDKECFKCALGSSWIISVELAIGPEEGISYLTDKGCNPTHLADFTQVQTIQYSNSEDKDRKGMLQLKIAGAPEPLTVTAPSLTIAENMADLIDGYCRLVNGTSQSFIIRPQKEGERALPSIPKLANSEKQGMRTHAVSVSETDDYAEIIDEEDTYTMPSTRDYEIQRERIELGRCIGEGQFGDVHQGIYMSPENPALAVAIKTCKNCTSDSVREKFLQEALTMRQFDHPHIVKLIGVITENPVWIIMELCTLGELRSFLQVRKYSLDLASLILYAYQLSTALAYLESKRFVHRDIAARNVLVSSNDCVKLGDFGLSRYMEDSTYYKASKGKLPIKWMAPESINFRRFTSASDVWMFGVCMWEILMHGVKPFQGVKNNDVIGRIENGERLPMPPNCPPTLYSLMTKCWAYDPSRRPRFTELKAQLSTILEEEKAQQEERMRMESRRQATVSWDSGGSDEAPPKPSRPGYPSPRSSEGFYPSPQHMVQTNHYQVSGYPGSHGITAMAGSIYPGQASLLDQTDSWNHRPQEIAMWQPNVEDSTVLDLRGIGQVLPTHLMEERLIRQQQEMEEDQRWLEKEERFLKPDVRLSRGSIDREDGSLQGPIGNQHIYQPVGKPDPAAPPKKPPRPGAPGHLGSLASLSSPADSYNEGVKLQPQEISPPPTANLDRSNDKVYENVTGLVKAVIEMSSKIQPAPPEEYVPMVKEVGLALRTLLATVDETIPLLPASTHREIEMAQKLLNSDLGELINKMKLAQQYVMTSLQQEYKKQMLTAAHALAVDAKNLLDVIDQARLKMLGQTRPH
- testConditions: at 10 µM
Please go through the items and note down their residual activity.
Give bare numbers, in %.

COc1cc2ncc(-c3ccccc3)nc2cc1OC 95
COc1ccc(OC)c2c(=S)c3ccccc3[nH]c12 108
N#CC(C#N)=C(N)/C(C#N)=C/c1ccc(O)cc1 97
Cn1cc(/C=C2\C(=O)Nc3ccc(S(N)(=O)=O)cc32)c2ccccc21 42
Cc1cc(Nc2nc(-c3ccccc3)nc3ccccc23)n[nH]1 7

Now look at this entry.
-- ask Given the molecule O=c1c2ccccc2[nH]c(=S)n1CCN1CCC(=C(c2ccc(F)cc2)c2ccc(F)cc2)CC1 , what is its reported residual activity?
-- reply 81
